# METHOD NOTES: Drug excretion in BDC dog urine
# Assay type: ADME, tissue-based, Canis lupus familiaris
ATTRIBUTE MEASURED: dose excreted (%)
Provide the reading as a plain figure in %.

Entry under review: COc1ccc(-n2nc(C(N)=O)c3c2C(=O)N(c2ccc(N4CCCCC4=O)cc2)CC3)cc1 [APIXABAN] . Reported dose excreted?
21

###

# METHOD NOTES: Unbound fraction in human plasma
# Assay type: ADME, cell-free
ATTRIBUTE MEASURED: fraction unbound
When you answer, write just the number.

Answered examples (3):
> print(dat)
                               given.smiles  endpoint.value
1  COc1ccc(-n2nc(C(N)=O)c3c2C(=O)N(c2ccc(N4CCCCC4=O)cc2)CC3)cc1            0.07
2  CS(=O)(=O)c1ccc(C(=O)Nc2ccc(Cl)c(-c3ccccn3)c2)c(Cl)c1            0.01
3  CCOc1ccc(Cc2cc([C@@H]3O[C@H](CO)[C@@H](O)[C@H](O)[C@H]3O)ccc2Cl)cc1           0.085

# context switch: different compound, same fraction unbound
Entry under review: `O=C1CN(/N=C/c2ccc([N+](=O)[O-])o2)C(=O)N1` . Reported fraction unbound?
0.4
